testedTarget: T1, recombinant cynomolgus monkey C5 (cynomolgus monkey, UniProt P01031 20-1676 (human entry), limits assumed)
T1 construct: also called cynoC5
T1 chain: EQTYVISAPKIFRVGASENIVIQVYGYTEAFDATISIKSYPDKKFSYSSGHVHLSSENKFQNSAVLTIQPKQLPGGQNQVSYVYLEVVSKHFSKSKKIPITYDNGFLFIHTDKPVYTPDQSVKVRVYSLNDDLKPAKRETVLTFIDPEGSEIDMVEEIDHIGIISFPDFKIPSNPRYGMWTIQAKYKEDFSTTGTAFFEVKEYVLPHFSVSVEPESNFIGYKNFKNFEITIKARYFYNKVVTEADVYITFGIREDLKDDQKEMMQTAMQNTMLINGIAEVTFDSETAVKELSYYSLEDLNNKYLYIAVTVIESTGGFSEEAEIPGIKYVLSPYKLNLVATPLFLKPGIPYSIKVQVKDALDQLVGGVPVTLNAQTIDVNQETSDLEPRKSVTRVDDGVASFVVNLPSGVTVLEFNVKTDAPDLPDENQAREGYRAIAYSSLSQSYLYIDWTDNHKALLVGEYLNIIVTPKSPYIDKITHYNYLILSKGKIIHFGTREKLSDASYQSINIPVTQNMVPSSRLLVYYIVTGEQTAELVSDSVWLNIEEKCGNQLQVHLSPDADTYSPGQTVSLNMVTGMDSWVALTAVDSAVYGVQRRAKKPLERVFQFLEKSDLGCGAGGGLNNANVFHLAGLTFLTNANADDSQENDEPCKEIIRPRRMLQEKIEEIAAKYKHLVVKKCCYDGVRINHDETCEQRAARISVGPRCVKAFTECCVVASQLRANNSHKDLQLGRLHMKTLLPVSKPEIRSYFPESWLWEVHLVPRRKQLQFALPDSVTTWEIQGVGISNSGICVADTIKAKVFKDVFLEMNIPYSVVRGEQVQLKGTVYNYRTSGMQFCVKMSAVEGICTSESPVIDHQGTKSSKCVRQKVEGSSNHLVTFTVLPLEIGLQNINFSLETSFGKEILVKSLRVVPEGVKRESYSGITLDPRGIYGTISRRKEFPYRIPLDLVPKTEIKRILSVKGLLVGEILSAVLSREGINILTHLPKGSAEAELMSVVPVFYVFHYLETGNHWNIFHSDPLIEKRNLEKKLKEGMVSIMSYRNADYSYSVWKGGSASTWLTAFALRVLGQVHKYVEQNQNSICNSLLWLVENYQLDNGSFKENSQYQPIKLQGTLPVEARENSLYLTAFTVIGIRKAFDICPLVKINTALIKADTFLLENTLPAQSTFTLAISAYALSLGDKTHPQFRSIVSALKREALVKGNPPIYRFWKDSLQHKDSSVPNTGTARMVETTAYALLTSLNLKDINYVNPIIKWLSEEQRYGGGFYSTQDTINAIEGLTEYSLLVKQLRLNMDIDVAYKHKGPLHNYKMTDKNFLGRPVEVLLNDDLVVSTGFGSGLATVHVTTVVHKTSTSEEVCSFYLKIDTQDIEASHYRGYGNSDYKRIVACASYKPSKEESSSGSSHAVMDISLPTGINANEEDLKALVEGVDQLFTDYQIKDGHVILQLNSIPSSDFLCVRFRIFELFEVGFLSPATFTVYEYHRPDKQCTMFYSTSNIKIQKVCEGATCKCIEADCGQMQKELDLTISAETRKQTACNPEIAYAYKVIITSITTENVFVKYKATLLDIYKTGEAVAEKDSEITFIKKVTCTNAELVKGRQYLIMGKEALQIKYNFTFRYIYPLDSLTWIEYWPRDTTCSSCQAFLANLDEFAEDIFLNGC
assayNotes: SPR (Biacore), 37C, pH 7.4, Ab captured on ProA/G
Each entry below lists one item and its recorded Kd value.
Write the number in nM without appending the unit.

// solved cases for Kd follow
Please look up its Kd: CFA0307 (antibody, V domains shown, Chimeric, rabbit V regions; also called CFA0307-F760G4) VH: QSLEESGGGLVKPGASLTLTCKASGIDFSNFYYICWVRQAPGKGLDLIACIYTVSGYTYYASWAKGRLTISKTSSTTVTLQMTSLTAADTATYFCARDLHAGITNLWGPGTLVTVSS VL: AIEMTQTPFSVSAAVGGTVTIKCQASQNIYSNLAWYQQKPGQRPKLLIYGASNLESGVPSRFKGSGSGTEYTLTISDLECADAATYYCLQGYSYSNVDDAFGGGTEVVVK 7.68

Again, but for CFA0666 (antibody, V domains shown, Chimeric, rabbit V regions; also called CFA0666-F760G4) VH: QSVEESGGRLVTPGTPLTLTCTVSGFSLSTYAMGWVRQAPGKGLEWIGTIDTGDNSFYANWAKGRFTISKTSTTVDLKITSPTAEDTATYFCARNDGSVYNLFNLWGPGTLVTVSS VL: DVVMTQTPASVSAAVGGTVTIKCQASENIYSALSWYQQKPGLRPRLLIYYASTLASGVPSRFKGSRSGTEFTLTISDLECADAATYYCQQYYDINSVDNTFGGGTKVVVE 1.57

Again, but for CFA0501 (antibody, V domains shown, Chimeric, rabbit V regions; also called CFA0501-F760G4) VH: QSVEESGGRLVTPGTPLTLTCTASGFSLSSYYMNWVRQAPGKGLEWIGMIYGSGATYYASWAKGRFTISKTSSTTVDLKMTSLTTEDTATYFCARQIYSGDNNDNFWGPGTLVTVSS VL: AYDMTQTPASVEVAVGGTVTINCQASESISNWLAWYQQKPGQRPKLLIYRASTLASGVSSRFKGSGSGTQFTLTISGVECDDAATYYCQQDYSSSNVDNTFGGGTKVVVE 5.88

Please examine the following record next.
Please look up its Kd: CFA0675 (antibody, V domains shown, Chimeric, rabbit V regions; also called CFA0675-F760G4) VH: QSVEESGGRLVTPGTPLTLTCTVSGFSLSTYAMGWVRQAPGKGLEWIGTIDTGDNSFYANWAKGRFTISRTSTTVDLKITSPTAEDTATYFCARNDGSVYNLFNLWGPGTLVTVSS VL: DVVMTQTPASVSAAVGGTVTIKCQASENIYSALSWYQQKPGLRPRLLIYYASTLASGVPSRFKGSRSGTEFTLTISDLECADAASYYCQQYYDINSVDNTFGGGTKVVVE 1.29
